Details: in isopropanol, 303.15 K
EXPERIMENTAL_ENDPOINT: solubility (mole fraction)
Reply: number alone, nothing else.

Enquiry: For CC(=O)NC1(C)CCC2CC1C(C)=NC2(C)C (configuration not stated) , what is its reported solubility (mole fraction)?
Return: 0.00155

Enquiry: What does the record list as solubility (mole fraction) for CC1(N=C(O)c2ccccc2)CCC2CC1C(c1ccccc1)=[NH+]C2(C)C.[O-][Cl+3]([O-])([O-])[O-] (configuration not stated) ?
Return: 0.00103

* * *

Exercise: for every item that follows, state its recorded solubility (mole fraction).
Settings: in water, 318.15 K
Keep the answer to the number alone.

Enquiry: Which solubility (mole fraction) is reported for this compound? CC(=O)NC1(C)CCC2CC1C(C)=NC2(C)C (configuration not stated)
Return: 0.0021

Enquiry: solubility (mole fraction) for CC1(N=C(O)c2ccccc2)CCC2CC1C(c1ccccc1)=[NH+]C2(C)C.[O-][Cl+3]([O-])([O-])[O-] (configuration not stated) ?
Return: 0.000115

* * *

Conditions: in water, 303.15 K
EXPERIMENTAL_ENDPOINT: solubility (mole fraction)
// return just the number, without any unit appended

Enquiry: If you can, please state the reported solubility (mole fraction) value of CC(=O)NC1(C)CCC2CC1C(C)=NC2(C)C (configuration not stated) .
Return: 0.00142

Enquiry: State the recorded solubility (mole fraction) for this entry: CC1(N=C(O)c2ccccc2)CCC2CC1C(c1ccccc1)=[NH+]C2(C)C.[O-][Cl+3]([O-])([O-])[O-] (configuration not stated)
Return: 5.7e-05

* * *

Details: in ethanol, 308.15 K
Would you kindly list solubility (mole fraction) for each of these molecules?
Enter a number only.

Enquiry: Please look up its solubility (mole fraction): CC1(N=C(O)c2ccccc2)CCC2CC1C(c1ccccc1)=[NH+]C2(C)C.[O-][Cl+3]([O-])([O-])[O-] (configuration not stated)
Return: 0.00223

Enquiry: Quick one: solubility (mole fraction) of CC(=O)NC1(C)CCC2CC1C(C)=NC2(C)C (configuration not stated) ?
Return: 0.00211

* * *

Provide the reported solubility (mole fraction) of each item.
Details: in 2-ethoxyethanol, 318.15 K

Enquiry: Which measured solubility (mole fraction) value corresponds to CC1(N=C(O)c2ccccc2)CCC2CC1C(c1ccccc1)=[NH+]C2(C)C.[O-][Cl+3]([O-])([O-])[O-] (configuration not stated) ?
Return: 0.0048

Enquiry: Sample CC(=O)NC1(C)CCC2CC1C(C)=NC2(C)C (configuration not stated) — what was its solubility (mole fraction)?
Return: 0.00322

* * *

I'd appreciate it if you could supply solubility (mole fraction) values for the items below.
Details: in n-propanol, 303.15 K
Reply with the value as a number alone.

Enquiry: Look up solubility (mole fraction): CC(=O)NC1(C)CCC2CC1C(C)=NC2(C)C (configuration not stated)
Return: 0.00171

Enquiry: Value lookup for solubility (mole fraction); key = CC1(N=C(O)c2ccccc2)CCC2CC1C(c1ccccc1)=[NH+]C2(C)C.[O-][Cl+3]([O-])([O-])[O-] (configuration not stated)
Return: 0.0016

* * *

Details: in n-propanol, 313.15 K
EXPERIMENTAL_ENDPOINT: solubility (mole fraction)
// no unit string in output, number only

Enquiry: Can you look up the measured solubility (mole fraction) of CC(=O)NC1(C)CCC2CC1C(C)=NC2(C)C (configuration not stated) for me?
Return: 0.00228

Enquiry: Quick check: solubility (mole fraction) of CC1(N=C(O)c2ccccc2)CCC2CC1C(c1ccccc1)=[NH+]C2(C)C.[O-][Cl+3]([O-])([O-])[O-] (configuration not stated) ?
Return: 0.00232
